tested on: hcGAS (Homo sapiens)
assay info: hcGAS LCMS assay (direct measurement of cGAMP production)
Format: biochemical
stated conditions: 0.5 nM hcGAS, 100 μM ATP, 100 μM GTP, 25 nM dsDNA, 4 h incubation
Description: cGAS catalyzes the cyclization of ATP and GTP to produce cGAMP, which is the activating ligand of STING. Human cGAS (hcGAS) inhibition can thus be quantified by measuring how much cGAMP is formed either indirectly, by monitoring ATP-depletion as in the hcGAS Kinase-Glo assay (as described below), or directly, such as using the hcGAS LCMS assay (as described below). Compounds were tested for their h-cGAS inhibition activity using direct measurement of cGAMP production by LC/MS. […]
pIC50: −log10 of the molar value.
pIC50 for assorted molecules

| molecule | pIC50 |
| --- | --- |
| CC[C@@H](COC)Nc1cc(C(=O)Nc2nnc(-n3nccc3C)s2)oc(=O)c1OC (single isomer, unassigned) | 7.70 to 8.30 |
| COC[C@H]1CC[C@H](COC)N1c1cc(C(=O)Nc2nnc(-n3nccc3C)s2)oc(=O)c1OC (racemic) | 7.70 to 8.30 |
| COc1c(N[C@H]2CCCC[C@H]2O)cc(C(=O)Nc2nnc(-n3nccc3C)s2)oc1=O (racemic) | 7.70 to 8.30 |
| COc1c(N[C@@H]2CC[C@@H]2O)cc(C(=O)Nc2nnc(-c3c(Cl)ccn3C)s2)oc1=O (single isomer, unassigned) | > 8.30 |

Q) Provide the documented pIC50 with hcGAS (Homo sapiens) as the system for `COc1c(NCCC#N)cc(C(=O)Nc2nnc(-n3nccc3C)s2)oc1=O`
A) 7.70 to 8.30

Q) Provide the documented pIC50 with hcGAS (Homo sapiens) as the system for `COc1c(NC2CC3(COC3)C2)cc(C(=O)Nc2nnc(-n3nccc3C)s2)oc1=O`
A) 6.70 to 7.22

Q) Provide the documented pIC50 with hcGAS (Homo sapiens) as the system for COc1c(N[C@H]2CC[C@@H](O)C2)cc(C(=O)Nc2nnc(-n3nccc3C)s2)oc1=O (racemic)
A) 7.70 to 8.30

---

tested on: hcGAS (Homo sapiens, UniProt Q8N884)
Sequence (Q8N884 whole entry): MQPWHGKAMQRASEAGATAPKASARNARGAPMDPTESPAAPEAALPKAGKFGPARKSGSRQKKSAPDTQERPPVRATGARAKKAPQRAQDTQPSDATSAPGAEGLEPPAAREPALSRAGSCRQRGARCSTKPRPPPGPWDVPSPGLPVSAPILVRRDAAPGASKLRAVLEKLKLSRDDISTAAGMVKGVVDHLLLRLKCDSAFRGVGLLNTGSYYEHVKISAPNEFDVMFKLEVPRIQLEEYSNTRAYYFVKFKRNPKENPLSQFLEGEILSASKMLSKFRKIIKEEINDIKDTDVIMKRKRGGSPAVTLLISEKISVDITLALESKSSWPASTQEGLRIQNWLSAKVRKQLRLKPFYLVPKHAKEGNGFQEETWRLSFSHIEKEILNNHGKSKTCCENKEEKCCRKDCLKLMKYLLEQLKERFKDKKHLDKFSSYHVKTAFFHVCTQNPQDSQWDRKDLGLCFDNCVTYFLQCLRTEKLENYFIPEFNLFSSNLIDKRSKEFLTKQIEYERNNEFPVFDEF
assay info: hcGAS LCMS assay (direct measurement of cGAMP production)
Format: biochemical
stated conditions: 0.5 nM hcGAS, 100 μM ATP, 100 μM GTP, 25 nM dsDNA, 4 h incubation
IC50 for assorted compounds

See these solved cases before continuing.
| compound | IC50 |
| --- | --- |
| COc1c(N[C@@H]2Cc3ccccc3[C@@H]2O)cc(C(=O)Nc2nnc(-n3nccc3C)s2)oc1=O (racemic) | ≥ 200 nM |
| COc1c(N[C@@H]2CC[C@@H]2OC)cc(C(=O)Nc2nnc(-c3c(Cl)ccn3C)s2)oc1=O (single isomer, unassigned) | 5 to 20 nM |
| COc1c(N[C@@H]2CCCCC[C@@H]2O)cc(C(=O)Nc2nnc(-n3nccc3C)s2)oc1=O (racemic) | < 5 nM |
| COc1c(NCCOCC(F)F)cc(C(=O)Nc2nnc(-n3nccc3C)s2)oc1=O | 20 to 60 nM |
| COc1c(N[C@H]2CCC[C@H]2OC)cc(C(=O)Nc2nnc(-c3c(Cl)ccn3C)s2)oc1=O (single isomer, unassigned) | < 5 nM |
| COc1c(N[C@H]2CC[C@H]2OC)cc(C(=O)Nc2nnc(-c3c(Cl)ccn3C)s2)oc1=O (single isomer, unassigned) | 5 to 20 nM |

Now let's try a different one.
Q) What does the record list as IC50 for COc1c(N[C@@H]2CCC[C@H]2OC)cc(C(=O)Nc2nnc(-n3nccc3C)s2)oc1=O (single isomer, unassigned) ?
A) < 5 nM
